protocol.conditions: the molecule shown is the open-chain precursor; other bond; 37-membered ring; CH(OMe)3/Et3N; then 6/LiBr/Et3N; DMF; THF; resin; 25.0 °C; with chain assembly
recorded.metric: ring closure, yield after HPLC (%)
Please reply with the bare figure in % and do not write the unit itself.

Examples with answers:
substance=H-Gly-MePhe-Asp-Ile-Asn-Asn-Asn-Val-Lys(4-formylbenzoyl)-Gly-resin? observed_result=5
substance=H-Gly-MePhe-Arg-Phe-Phe-Asn-Ala-Phe-Lys(4-formylbenzoyl)-Gly-resin? observed_result=2

Data request: What measured ring closure, yield after HPLC goes with "H-Gly-MePhe-Arg-dPhe-dPhe-Asn-Ala-Phe-Lys(4-formylbenzoyl)-Gly-resin?" ?
Data returned: 4

Data request: Could you do the same for "H-Gly-MePhe-Arg-Phe-Phe-Asn-Ala-Phe-Lys(4-formylbenzoyl)-Tyr-resin?" , please?
Data returned: 2

Data request: Could you do the same for "H-Gly-MePhe-Arg-dPhe-dPhe-Asn-Ala-Phe-Lys(4-formylbenzoyl)-Tyr-resin?" , please?
Data returned: 2

----------
assayed.system: human MC1R (Homo sapiens)
Sequence (Q01726 whole entry): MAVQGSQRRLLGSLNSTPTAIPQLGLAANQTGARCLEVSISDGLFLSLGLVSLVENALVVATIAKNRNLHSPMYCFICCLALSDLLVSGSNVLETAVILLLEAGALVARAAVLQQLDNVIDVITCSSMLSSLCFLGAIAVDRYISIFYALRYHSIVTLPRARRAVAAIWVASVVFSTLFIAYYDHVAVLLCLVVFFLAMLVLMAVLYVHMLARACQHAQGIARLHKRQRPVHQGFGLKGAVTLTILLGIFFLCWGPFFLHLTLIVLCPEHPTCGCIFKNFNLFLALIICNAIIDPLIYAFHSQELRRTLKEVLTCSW
assay.procedure: cAMP assay (LANCE) in T-Rex-293 cells expressing MC1R
protocol.conditions: cAMP assay; mean (± SEM) of at least three independent experiments; read-out: EC50 hMC1R cAMP
recorded.metric: pEC50
In plain terms, pEC50 is the concentration in mol/L turned into minus its base-10 logarithm.

compound="C[C@@H]1NC(=O)[C@H](CC(N)=O)NC(=O)[C@H](Cc2ccccc2)NC(=O)[C@H](Cc2ccccc2)NC(=O)[C@H](CCCNC(=N)N)NC(=O)[C@H](Cc2ccccc2)N(C)C(=O)[C@H]2N[C@@H](c3ccc(cc3)C(=O)NCCCC[C@@H](C(=O)NCC(N)=O)NC(=O)[C@H](Cc3ccccc3)NC1=O)[C@H]1C(=O)N(C)C(=O)[C@H]12 [B2-minor, [ I-FRFFNAFK ]G]" assayed_system="human MC1R (Homo sapiens)" recorded_metric=pEC50 observed_result=5.00

# input for lookup
Data request: What measured pEC50 goes with CN1C(=O)[C@H]2N[C@@H](c3ccc(cc3)C(=O)NCCCC[C@@H](C(=O)NCC(N)=O)NC(=O)[C@H](Cc3ccccc3)NC(=O)[C@H](Cc3ccccc3)NC(=O)[C@H](CCCNC(=N)N)NC(=O)[C@@H]1Cc1ccccc1)[C@H]1C(=O)N(c3ccccc3)C(=O)[C@H]12 [N2-major*, [II-FRFFK ]G] ?
Data returned: 4.85

----------
assayed.system: human MC3R (Homo sapiens)
Sequence (P41968 whole entry): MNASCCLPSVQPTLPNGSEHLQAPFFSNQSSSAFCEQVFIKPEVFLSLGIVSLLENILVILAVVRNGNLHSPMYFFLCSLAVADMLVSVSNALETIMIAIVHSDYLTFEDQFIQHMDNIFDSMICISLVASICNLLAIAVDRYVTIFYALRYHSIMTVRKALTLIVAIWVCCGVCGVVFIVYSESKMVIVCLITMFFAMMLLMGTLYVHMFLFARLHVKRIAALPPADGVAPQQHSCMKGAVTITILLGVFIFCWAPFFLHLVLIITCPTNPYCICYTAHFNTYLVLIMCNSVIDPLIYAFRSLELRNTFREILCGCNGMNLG
pIC50: −log10 of the molar value. Where a SMILES comes first, the peptide text is derived from it.
recorded.metric: pIC50

Examples with answers:
molecule="C[C@@H]1NC(=O)[C@H](CC(N)=O)NC(=O)[C@H](Cc2ccccc2)NC(=O)[C@H](Cc2ccccc2)NC(=O)[C@H](CCCNC(=N)N)NC(=O)[C@H](Cc2ccccc2)N(C)C(=O)[C@H]2N[C@@H](c3ccc(cc3)C(=O)NCCCC[C@@H](C(=O)NCC(N)=O)NC(=O)[C@H](Cc3ccccc3)NC1=O)[C@H]1C(=O)N(c3ccccc3)C(=O)[C@H]12 [B3-major*, [ II-FRFFNAFK]G]" assayed_system="human MC3R (Homo sapiens)" observed_result="< 5.00"
molecule="CN1C(=O)[C@@H]2[C@H](C1=O)[C@H]1N[C@@H]2C(=O)N(C)[C@@H](Cc2ccccc2)C(=O)N[C@@H](CCCNC(=N)N)C(=O)N[C@H](Cc2ccccc2)C(=O)N[C@H](Cc2ccccc2)C(=O)N[C@H](C(=O)N[C@@H](Cc2ccc(O)cc2)C(N)=O)CCCCNC(=O)c2ccc1cc2 [O1-minor, [I-FRffK ]Y]" assayed_system="human MC3R (Homo sapiens)" observed_result="< 5.00"
molecule="CN1C(=O)[C@H]2N[C@@H](c3ccc(cc3)C(=O)NCCCC[C@@H](C(=O)NCC(N)=O)NC(=O)[C@H](Cc3ccccc3)NC(=O)[C@H](Cc3ccccc3)NC(=O)[C@H](CCCNC(=N)N)NC(=O)[C@@H]1Cc1ccccc1)[C@H]1C(=O)N(c3ccccc3)C(=O)[C@H]12 [N2-major*, [II-FRFFK ]G]" assayed_system="human MC3R (Homo sapiens)" observed_result="< 4.00"

Data request: What measured pIC50 goes with COc1ccc(N2C(=O)[C@@H]3[C@H](C2=O)[C@H]2N[C@@H]3C(=O)N(C)[C@@H](Cc3ccccc3)C(=O)N[C@@H](CCCNC(=N)N)C(=O)N[C@H](Cc3ccccc3)C(=O)N[C@H](Cc3ccccc3)C(=O)N[C@@H](CC(N)=O)C(=O)N[C@H](C(=O)NCC(N)=O)CCCCNC(=O)c3ccc2cc3)cc1 [K4-minor, [III-FRffNK ]G] ?
Data returned: < 4.00

Data request: Could you do the same for CN1C(=O)[C@H]2N[C@@H](c3ccc(cc3)C(=O)NCCCC[C@@H](C(=O)NCC(N)=O)NC(=O)[C@H](CC(N)=O)NC(=O)[C@@H](Cc3ccccc3)NC(=O)[C@@H](Cc3ccccc3)NC(=O)[C@H](CCCNC(=N)N)NC(=O)[C@@H]1Cc1ccccc1)[C@H]1C(=O)N(c3ccccc3)C(=O)[C@H]12 [K3-minor, [II-FRffNK ]G] , please?
Data returned: < 5.00

Data request: Could you do the same for C[C@@H]1NC(=O)[C@H](CC(N)=O)NC(=O)[C@@H](Cc2ccccc2)NC(=O)[C@@H](Cc2ccccc2)NC(=O)[C@H](CCCNC(=N)N)NC(=O)[C@@H](NC(=O)[C@@H](N)Cc2ccc(O)cc2)CSSC[C@@H](C(=O)N[C@@H](Cc2ccc(O)cc2)C(N)=O)NC(=O)[C@H](Cc2ccccc2)NC1=O [compound 29, Y[CRffNAFC]Y, reference compound] (HELM PEPTIDE1{Y.C.R.[dF].[dF].N.A.F.C.Y.[am]}$PEPTIDE1,PEPTIDE1,2:R3-9:R3$$$V2.0) , please?
Data returned: 5.02

----------
assayed.system: human MC4R (Homo sapiens)
Sequence (P32245 whole entry): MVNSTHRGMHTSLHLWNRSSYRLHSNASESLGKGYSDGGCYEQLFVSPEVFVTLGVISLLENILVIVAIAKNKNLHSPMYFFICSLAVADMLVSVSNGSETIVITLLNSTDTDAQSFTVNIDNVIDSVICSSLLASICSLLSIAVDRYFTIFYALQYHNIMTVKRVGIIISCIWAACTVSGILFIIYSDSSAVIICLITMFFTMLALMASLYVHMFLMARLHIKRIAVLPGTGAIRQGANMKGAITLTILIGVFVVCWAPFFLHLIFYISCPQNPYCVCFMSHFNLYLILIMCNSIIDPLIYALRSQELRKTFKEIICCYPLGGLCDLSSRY
assay.procedure: cAMP assay (LANCE) in T-Rex-293 cells expressing MC4R
protocol.conditions: cAMP assay; mean (± SEM) of at least three independent experiments; read-out: EC50 hMC4R cAMP
recorded.metric: EC50

Examples with answers:
molecule="CN1C(=O)[C@H]2N[C@@H](c3ccc(cc3)C(=O)NCCCC[C@@H](C(=O)NCC(N)=O)NC(=O)[C@H](Cc3ccccc3)NC(=O)[C@H](Cc3ccccc3)NC(=O)[C@H](CCCNC(=N)N)NC(=O)[C@@H]1Cc1ccccc1)[C@H]1C(=O)N(c3ccccc3)C(=O)[C@H]12 [N2-major*, [II-FRFFK ]G]" observed_result="> 100 µM"
molecule="CN1C(=O)[C@H]2N[C@@H](c3ccc(cc3)C(=O)NCCCC[C@@H](C(=O)N[C@@H](Cc3ccc(O)cc3)C(N)=O)NC(=O)[C@H](CC(N)=O)NC(=O)[C@H](Cc3ccccc3)NC(=O)[C@H](Cc3ccccc3)NC(=O)[C@H](CCCNC(=N)N)NC(=O)[C@@H]1Cc1ccccc1)[C@H]1C(=O)N(c3ccccc3)C(=O)[C@H]12 [J2-major, [ II-FRFFNK ]Y]" observed_result="> 100 µM"

Data request: Short answer please: EC50, human MC4R (Homo sapiens), entry COc1cc(N2C(=O)[C@@H]3[C@H](C2=O)[C@H]2N[C@@H]3c3ccc(cc3)C(=O)NCCCC[C@@H](C(=O)NCC(N)=O)NC(=O)[C@H](CC(N)=O)NC(=O)[C@@H](Cc3ccccc3)NC(=O)[C@@H](Cc3ccccc3)NC(=O)[C@H](CCCNC(=N)N)NC(=O)[C@H](Cc3ccccc3)N(C)C2=O)cc(OC)c1OC [K5-major, [XI-FRffNK ]G]
Data returned: > 10 µM

----------
pIC50: −log10 of the molar value. Where a SMILES comes first, the peptide text is derived from it.
So I've got pIC50 readings for human MC1R (Homo sapiens, UniProt Q01726), take a look.

compound="CN1C(=O)[C@H]2N[C@@H](c3ccc(cc3)C(=O)NCCCC[C@@H](C(=O)N[C@@H](Cc3ccc(O)cc3)C(N)=O)NC(=O)[C@H](Cc3ccccc3)NC(=O)[C@H](Cc3ccccc3)NC(=O)[C@H](CCCNC(=N)N)NC(=O)[C@@H]1Cc1ccccc1)[C@H]1C(=O)N(c3ccccc3)C(=O)[C@H]12 [N1-major*, [II-FRFFK ]Y]" assayed_system="human MC1R (Homo sapiens, UniProt Q01726)" observed_result="< 5.00"

Data request: What measured pIC50 goes with C[C@@H]1NC(=O)[C@H](CC(N)=O)NC(=O)[C@H](Cc2ccccc2)NC(=O)[C@H](Cc2ccccc2)NC(=O)[C@H](CCCNC(=N)N)NC(=O)[C@@H](NC(=O)[C@@H](N)Cc2ccc(O)cc2)CSSC[C@@H](C(=O)N[C@@H](Cc2ccc(O)cc2)C(N)=O)NC(=O)[C@H](Cc2ccccc2)NC1=O [compound 28, reference compound] (HELM PEPTIDE1{Y.C.R.F.F.N.A.F.C.Y.[am]}$PEPTIDE1,PEPTIDE1,2:R3-9:R3$$$V2.0) ?
Data returned: 5.00

Data request: Could you do the same for CN1C(=O)[C@@H]2[C@H](C1=O)[C@H]1N[C@@H]2C(=O)N(C)[C@@H](Cc2ccccc2)C(=O)N[C@@H](CCCNC(=N)N)C(=O)N[C@H](Cc2ccccc2)C(=O)N[C@H](Cc2ccccc2)C(=O)N[C@H](C(=O)N[C@@H](Cc2ccc(O)cc2)C(N)=O)CCCCNC(=O)c2ccc1cc2 [O1-minor, [I-FRffK ]Y] , please?
Data returned: < 5.00

Data request: Could you do the same for C[C@@H]1NC(=O)[C@H](CC(N)=O)NC(=O)[C@@H](Cc2ccccc2)NC(=O)[C@@H](Cc2ccccc2)NC(=O)[C@H](CCCNC(=N)N)NC(=O)[C@H](Cc2ccccc2)N(C)C(=O)[C@@H]2N[C@H](c3ccc(cc3)C(=O)NCCCC[C@@H](C(=O)N[C@@H](Cc3ccc(O)cc3)C(N)=O)NC(=O)[C@H](Cc3ccccc3)NC1=O)[C@@H]1C(=O)N(C)C(=O)[C@@H]12 [C1-major, [I-FRffNAFK ]Y] , please?
Data returned: 4.64

Data request: Could you do the same for CN1C(=O)[C@H]2N[C@@H](c3ccc(cc3)C(=O)NCCCC[C@@H](C(=O)NCC(N)=O)NC(=O)[C@H](Cc3ccccc3)NC(=O)[C@H](Cc3ccccc3)NC(=O)[C@H](CCCNC(=N)N)NC(=O)[C@@H]1Cc1ccccc1)[C@H]1C(=O)N(c3ccccc3)C(=O)[C@H]12 [N2-major*, [II-FRFFK ]G] , please?
Data returned: < 4.00

Data request: Could you do the same for C[C@@H]1NC(=O)[C@H](CC(N)=O)NC(=O)[C@H](Cc2ccccc2)NC(=O)[C@H](Cc2ccccc2)NC(=O)[C@H](CCCNC(=N)N)NC(=O)[C@H](Cc2ccccc2)N(C)C(=O)[C@H]2N[C@@H](c3ccc(cc3)C(=O)NCCCC[C@@H](C(=O)NCC(N)=O)NC(=O)[C@H](Cc3ccccc3)NC1=O)[C@H]1C(=O)N(C)C(=O)[C@H]12 [B2-minor, [ I-FRFFNAFK ]G] , please?
Data returned: < 4.00

Data request: Could you do the same for C[C@@H]1NC(=O)[C@H](CC(N)=O)NC(=O)[C@H](Cc2ccccc2)NC(=O)[C@H](Cc2ccccc2)NC(=O)[C@H](CCCNC(=N)N)NC(=O)[C@H](Cc2ccccc2)N(C)C(=O)[C@H]2N[C@@H](c3ccc(cc3)C(=O)NCCCC[C@@H](C(=O)N[C@@H](Cc3ccc(O)cc3)C(N)=O)NC1=O)[C@H]1C(=O)N(c3ccccc3)C(=O)[C@H]12 [F2-minor, [ II-FRFFNAK ]Y] , please?
Data returned: 4.09

Data request: Could you do the same for COc1ccc(N2C(=O)[C@@H]3[C@H](C2=O)[C@H]2N[C@@H]3C(=O)N(C)[C@@H](Cc3ccccc3)C(=O)N[C@@H](CCCNC(=N)N)C(=O)N[C@H](Cc3ccccc3)C(=O)N[C@H](Cc3ccccc3)C(=O)N[C@@H](CC(N)=O)C(=O)N[C@H](C(=O)NCC(N)=O)CCCCNC(=O)c3ccc2cc3)cc1 [K4-minor, [III-FRffNK ]G] , please?
Data returned: < 4.00

Data request: Could you do the same for C[C@@H]1NC(=O)[C@H](CC(N)=O)NC(=O)[C@@H](Cc2ccccc2)NC(=O)[C@@H](Cc2ccccc2)NC(=O)[C@H](CCCNC(=N)N)NC(=O)[C@H](Cc2ccccc2)N(C)C(=O)[C@@H]2N[C@H](c3ccc(cc3)C(=O)NCCCC[C@@H](C(=O)N[C@@H](Cc3ccc(O)cc3)C(N)=O)NC1=O)[C@@H]1C(=O)N(C)C(=O)[C@@H]12 [G1-major, [I-FRffNAK ]Y] , please?
Data returned: < 5.00

Data request: Could you do the same for CN1C(=O)[C@H]2N[C@@H](c3ccc(cc3)C(=O)NCCCC[C@@H](C(=O)NCC(N)=O)NC(=O)[C@H](CC(N)=O)NC(=O)[C@@H](Cc3ccccc3)NC(=O)[C@@H](Cc3ccccc3)NC(=O)[C@H](CCCNC(=N)N)NC(=O)[C@@H]1Cc1ccccc1)[C@H]1C(=O)N(c3ccccc3)C(=O)[C@H]12 [K3-minor, [II-FRffNK ]G] , please?
Data returned: < 5.00

Data request: Could you do the same for C[C@@H]1NC(=O)[C@H](CC(N)=O)NC(=O)[C@@H](Cc2ccccc2)NC(=O)[C@@H](Cc2ccccc2)NC(=O)[C@H](CCCNC(=N)N)NC(=O)[C@@H](NC(=O)[C@@H](N)Cc2ccc(O)cc2)CSSC[C@@H](C(=O)N[C@@H](Cc2ccc(O)cc2)C(N)=O)NC(=O)[C@H](Cc2ccccc2)NC1=O [compound 29, Y[CRffNAFC]Y, reference compound] (HELM PEPTIDE1{Y.C.R.[dF].[dF].N.A.F.C.Y.[am]}$PEPTIDE1,PEPTIDE1,2:R3-9:R3$$$V2.0) , please?
Data returned: 5.60
